Test: Example 6 pharmacokinetics assay for PKPD study (plasma, tumor, liver)
Format: in vivo, BALB/c nude mice
Details: mouse, plasma, po; 10 mg/kg, single dose; 24 h; read-out: Concentration in Plasma (mean ± SEM)
Method: For the pharmacokinetic/pharmacodynamic (PKPD) study, compounds were tested in the A375 human melanoma xenografts. Known BRAF inhibitors encorafenib, and dabrafenib were used as positive controls. Encorafenib, dabrafenib, Compound 83, Compound 93, Compound 70, and Compound 54 were administered to BALB/c nude mice bearing A375 tumors on PG-D1 and dosed orally (PO) once. Encorafenib was dosed at 35 mg/kg. Dabrafenib was dosed at 100 mg/kg. […]
quantity: concentration at 24 h (ng/mL)
Numbers only, in ng/mL.

These recorded examples may help you get a feel for the data.
[ask] Supply measured concentration at 24 h of CCN(C)S(=O)(=O)Nc1ccc(F)c(Oc2ccc3ncn(C4CC5(CCN(C6CCC(c7cc8c(cc7F)c(N7CCC(=O)NC7=O)nn8C)CC6F)CC5)C4)c(=O)c3c2)c1C#N (single isomer, unassigned) in your reply.
[reply] 172

[ask] Provide concentration at 24 h value for the following compound: CCN(C)S(=O)(=O)Nc1ccc(F)c(Oc2ccc3ncc([C@@H]4COC5(CCN(C6CCC(c7cc8c(cc7F)c(N7CCC(=O)NC7=O)nn8C)CC6)CC5)C4)nc3c2)c1C#N (single isomer, unassigned)
[reply] 54

Others:
[ask] Fill in reported concentration at 24 h for this entry: Cn1nc(N2CCC(=O)NC2=O)c2cc(F)c(C3CCC(N4CCC5(CC4)CC(n4cnc6ccc(Oc7c(F)ccc(NS(=O)(=O)C8CCCC8)c7C#N)cc6c4=O)C5)CC3)cc21 (single isomer, unassigned)
[reply] 2.85
